// pIC50 collected for Histone deacetylase 1 (Homo sapiens)
pIC50 is a log-scale quantity: -log10 of the concentration expressed in molar.

Query block: So what's the measured pIC50 for this one? CCC(=O)CCCCC[C@H](NC(=O)[C@H]1CC12CCN(C)CC2)c1[nH]c(-c2cc3ccccc3nc2OC)nc1C#N
Result block: 7.01

Query block: Follow-up item: CCC(=O)CCCCC[C@H](NC(=O)[C@H]1CC12CCN(C)CC2)c1[nH]c(-c2ccc3nn(C)cc3c2)nc1C#N
Result block: 9.40

Query block: And what about the compound CCC(=O)CCCCCC(NC(=O)c1cncs1)c1[nH]c(-c2ccccc2)nc1C(N)=O (stereo not drawn) ?
Result block: 8.14

Query block: Repeat with CCC(=O)CCCCC[C@H](NC(=O)[C@H]1CC12CCN(C)CC2)c1[nH]c(-c2ccc(C(F)(F)F)cc2)nc1C#N
Result block: 8.43

Query block: Same thing, different compound: CCC(=O)CCCCC[C@H](NC(=O)C1CCOCC1)c1[nH]c(-c2ccc(F)cc2)nc1C(N)=O
Result block: 7.91

Query block: Try CCC(=O)CCCCC[C@H](NC(=O)CN(C)C)c1[nH]c(-c2ccc(F)cc2)nc1C#N next.
Result block: 7.32

Query block: Moving on to the next compound: CCC(=O)CCCCC[C@H](NC(=O)[C@H]1CC12CCN(C)CC2)c1[nH]c(-c2ccc3nc(C)ccc3c2)nc1C#N
Result block: 9.52

Query block: Entry to check: CCC(=O)CCCCCC(NC(=O)c1cncs1)c1[nH]c(-c2ccccc2)nc1C(=O)N1CCOCC1 (stereo not drawn)
Result block: 7.36

###

- measurement_target: Class 1 histone deacetylase (Homo sapiens, UniProt Q13547+O15379+Q92769+Q9BY41)
- experiment: Inhibition of Class 1 HDAC in VSV-G-pseudotyped HIV infected human 2C4 cell Jurkat model assessed as reactivation of HIV latency in presence of 5% NHS by fluorescent reporter gene assay
Rule: EC50 below 300 nM gives YES. Equal to or above 300 nM gives NO.

Query block: # TODO verify EC50 < 300 nM strictly for this molecule: CCC(=O)CCCCC[C@H](NC(=O)[C@H]1CC12CCN(C)CC2)c1[nH]c(-c2ccccc2F)nc1C#N
Result block: NO

Query block: What do you get for CCC(=O)CCCCC[C@H](NC(=O)[C@H]1CC12CCN(C)CC2)c1[nH]c(-c2ccc(C(F)(F)F)cc2)nc1C#N ?
Result block: YES

Query block: Now the same for CCC(=O)CCCCC[C@H](NC(=O)[C@H]1CC12CCN(C)CC2)c1[nH]c(-c2ccc(-c3cccnc3)cc2)nc1C#N
Result block: YES

Query block: Likewise for CCC(=O)CCCCC[C@H](NC(=O)[C@H]1CC12CCN(C)CC2)c1[nH]c(-c2ccc(F)cc2)nc1C(N)=O ?
Result block: YES

Query block: Would you kindly repeat that for CCC(=O)CCCCC[C@H](NC(=O)c1ccon1)c1[nH]c(-c2ccc(F)cc2)nc1C#N ?
Result block: NO

Query block: Subsequent entry: CCC(=O)CCCCC[C@H](NC(=O)C1CN(C)C1)c1[nH]c(-c2ccc(F)cc2)nc1C#N
Result block: NO

Query block: Try this molecule too: CCC(=O)CCCCC[C@H](NC(=O)C1CN(C)C1)c1[nH]c(-c2ccc(F)cc2)nc1C(N)=O
Result block: NO

Query block: Quick one: CCC(=O)CCCCC[C@H](NC(=O)C1CN(C)C1)c1[nH]c(-c2ccccc2)nc1C(N)=O
Result block: YES

Query block: Also CCC(=O)CCCCC[C@H](NC(=O)[C@H]1CC12CCN(C)CC2)c1[nH]c(-c2ccc(F)cc2)nc1C#N ?
Result block: NO

Query block: Please do the same for CCC(=O)CCCCC[C@H](NC(=O)C12CCN(CC1)CC2)c1[nH]c(-c2ccc(F)cc2)nc1C#N as well.
Result block: NO

Query block: // next record CCC(=O)CCCCC[C@H](NC(=O)[C@H]1CC12CCN(C)CC2)c1[nH]c(-c2cc3ccccc3nc2OC)nc1C#N
Result block: NO

Query block: Now the molecule CCC(=O)CCCCC[C@H](NC(=O)CN(C)C)c1[nH]c(-c2ccc(F)cc2)nc1C#N
Result block: NO

Query block: Next record, please: CCC(=O)CCCCC[C@H](NC(=O)[C@H]1CC12CCN(CC)CC2)c1[nH]c(-c2ccc(F)cc2)nc1C#N
Result block: YES

Query block: Proceed to CCC(=O)CCCCC[C@H](NC(=O)C1CCOCC1)c1[nH]c(-c2ccc(F)cc2)nc1C(N)=O
Result block: NO

Query block: One more molecule: CCC(=O)CCCCC[C@H](NC(=O)[C@H]1CC12CCN(C)CC2)c1[nH]c(-c2ccc3nn(C)cc3c2)nc1C#N
Result block: NO

Query block: And the next one, CCC(=O)CCCCCC(NC(=O)c1cncs1)c1[nH]c(-c2ccccc2)nc1C(=O)NCCN(C)C (configuration not stated) ?
Result block: NO

Query block: Follow-up entry: CCC(=O)CCCCCC(NC(=O)c1cncs1)c1[nH]c(-c2ccccc2)nc1C(=O)N1CCOCC1 (configuration not stated)
Result block: NO

###

- measurement_target: Histone deacetylase 1 (Homo sapiens)
- Sequence (Q13547 whole entry): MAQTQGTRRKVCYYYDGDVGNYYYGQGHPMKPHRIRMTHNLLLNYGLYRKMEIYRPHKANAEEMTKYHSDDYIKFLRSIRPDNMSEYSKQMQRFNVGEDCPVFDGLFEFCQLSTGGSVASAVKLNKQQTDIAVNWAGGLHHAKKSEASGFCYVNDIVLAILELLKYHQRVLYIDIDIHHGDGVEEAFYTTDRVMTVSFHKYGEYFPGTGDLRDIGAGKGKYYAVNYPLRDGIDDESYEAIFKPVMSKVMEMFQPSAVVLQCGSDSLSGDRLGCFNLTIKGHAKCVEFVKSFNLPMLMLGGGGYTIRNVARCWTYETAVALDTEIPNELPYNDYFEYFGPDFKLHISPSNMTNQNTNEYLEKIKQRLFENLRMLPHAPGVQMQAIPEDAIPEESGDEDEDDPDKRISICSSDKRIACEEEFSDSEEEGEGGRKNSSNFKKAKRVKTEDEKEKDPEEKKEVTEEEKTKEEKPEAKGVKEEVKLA
Record form. Attribute: pIC50. Fill in for each entry.
Lab note: report pIC50 as minus log10 of the concentration in molar units, number only.

Query block: Consider the compound CCC(=O)CCCCC[C@H](NC(=O)[C@H]1CC12CCN(CC)CC2)c1[nH]c(-c2ccc(F)cc2)nc1C#N and give its measured pIC50.
Result block: 8.55

Query block: Also CCC(=O)CCCCC[C@H](NC(=O)C12CCN(CC1)CC2)c1[nH]c(-c2ccc(F)cc2)nc1C#N , if possible.
Result block: 8.21

Query block: Also CCC(=O)CCCCC[C@H](NC(=O)C1CN(C)C1)c1[nH]c(-c2ccccc2)nc1C(N)=O , if possible.
Result block: 8.72

Query block: Okay, and CCC(=O)CCCCC[C@H](NC(=O)C1CN(C)C1)c1[nH]c(-c2ccc(F)cc2)nc1C#N ?
Result block: 7.59

###

- measurement_target: Histone deacetylase 8 (Homo sapiens)
- Sequence (Q9BY41 whole entry): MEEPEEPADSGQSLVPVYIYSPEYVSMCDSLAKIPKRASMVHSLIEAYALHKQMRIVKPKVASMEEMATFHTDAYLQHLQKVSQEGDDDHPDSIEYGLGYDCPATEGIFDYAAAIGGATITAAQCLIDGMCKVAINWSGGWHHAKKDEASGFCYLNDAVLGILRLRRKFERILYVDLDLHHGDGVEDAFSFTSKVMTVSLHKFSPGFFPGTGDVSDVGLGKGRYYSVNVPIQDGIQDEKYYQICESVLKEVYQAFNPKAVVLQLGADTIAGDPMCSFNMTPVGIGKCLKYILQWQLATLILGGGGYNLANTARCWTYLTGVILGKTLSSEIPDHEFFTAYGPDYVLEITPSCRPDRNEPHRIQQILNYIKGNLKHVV
attribute_measured: pIC50
Field pIC50 (float): negative decimal logarithm of the concentration in molar.

Query block: Tell me the measured pIC50 of CCC(=O)CCCCC[C@H](NC(=O)[C@H]1CC12CCN(C)CC2)c1[nH]c(-c2ccc(-c3cccnc3)cc2)nc1C#N , please.
Result block: 4.90

Query block: Let us now turn to CCC(=O)CCCCC[C@H](NC(=O)[C@H]1CC12CCN(C)CC2)c1[nH]c(-c2cccnc2OC)nc1C#N
Result block: 4.42

Query block: Would you kindly repeat that for CCC(=O)CCCCC[C@H](NC(=O)c1cncs1)c1[nH]c(-c2ccc(F)cc2)nc1C#N ?
Result block: 4.91

Query block: Here is the next compound: CCC(=O)CCCCC[C@H](NC(=O)[C@H]1CC12CCN(CC)CC2)c1[nH]c(-c2ccc(F)cc2)nc1C#N
Result block: 5.03

###

Could you please report measured EC50 for the items listed next?
- measurement_target: Class 1 histone deacetylase (Homo sapiens, UniProt Q13547+O15379+Q92769+Q9BY41)
- experiment: Inhibition of Class 1 HDAC in VSV-G-pseudotyped HIV infected human 2C4 cell Jurkat model assessed as reactivation of HIV latency in presence of 0.1% NHS by fluorescent reporter gene assay
Dear colleague, please return just the value in nM, with no unit written.

Query block: # input compound: CCC(=O)CCCCC[C@H](NC(=O)C1CCOCC1)c1[nH]c(-c2ccc(F)cc2)nc1C(N)=O ; wanted: its EC50
Result block: 1834

Query block: # iterate: CCC(=O)CCCCC[C@H](NC(=O)C1CN(C)C1)c1[nH]c(-c2ccc(F)cc2)nc1C#N
Result block: 1564

Query block: Subsequent entry: CCC(=O)CCCCC[C@H](NC(=O)C1CN(C)C1)c1[nH]c(-c2ccccc2)nc1C(N)=O
Result block: 294

Values were extracted from ChEMBL document CHEMBL4665726.
